- Tested on: human skin malignant melanoma cell line A2058
- Type: cell-based
- CONDITION_LABEL: human, 24 h
No end group written: not given here.
MEASURED_PROPERTY: IC50

RESIDUE_CODES: GWFKKTFHKVSHAVKSGIHAGQRGCSALGF [P17 HC]
DATA_VALUE: < 10 µM

* * *

- Test system: Pseudomonas aeruginosa
- Format: cell-based
No end group written: not given here.
MEASURED_PROPERTY: Minimal inhibitory concentration, P. aeruginosa (µM)

RESIDUE_CODES: GWFKKTFHKV [P17 HC (1-10)]
UOM: µM
VALUE_COMPARATOR: =
DATA_VALUE: 100
//
RESIDUE_CODES: SHAVKSGIHA [P17 HC (11-20)]
UOM: µM
VALUE_COMPARATOR: >
DATA_VALUE: 100
//
RESIDUE_CODES: GWFKKTFHKVSHAVKSGIHA [P17 HC (1-20)]
UOM: µM
VALUE_COMPARATOR: =
DATA_VALUE: 6.25
//
RESIDUE_CODES: GQRGCSALGF [P17 HC (21-30)]
UOM: µM
VALUE_COMPARATOR: >
DATA_VALUE: 100
//
RESIDUE_CODES: DLRGACAAAHAL [P17 LC]
UOM: µM
VALUE_COMPARATOR: >
DATA_VALUE: 100
//
RESIDUE_CODES: GWFKKTFHKVSHAVKSGIHAGQRGCSALGF [P17 HC]
UOM: µM
VALUE_COMPARATOR: =
DATA_VALUE: 3.12

This collection of values is drawn from patent US20100093642A1.
